Give measured growth inhibition for each item. Keep answers brief.
System: DIPGX29 (H3.3 K27M diffuse intrinsic pontine glioma line)
ASSAY NAME: growth inhibition (% activity, log2 RLU normalised to DMSO / staurosporine); higher = more growth inhibition
CONDITION INFO: 33 µM
Supply the numeric figure in %, leaving out any unit text.

[ask] What value of growth inhibition has been recorded for this entry: `CC(=O)/N=c1/sc(S(N)(=O)=O)nn1C`
[reply] 1.46

[ask] May I ask what growth inhibition has been recorded for `COc1nc(N)nc2c1ncn2[C@@H]1O[C@H](CO)[C@@H](O)[C@@H]1O` ?
[reply] -0.0296

[ask] Item `C[N+](C)(CCOc1ccccc1)Cc1ccccc1.O=C([O-])c1cc2ccccc2cc1O` has what recorded growth inhibition?
[reply] -1.73

[ask] Using the record for `NC(=O)c1cn(Cc2c(F)cccc2F)nn1` , report its growth inhibition.
[reply] -1.15

[ask] Given the compound `N=C(N)NCCN1CCCCCCC1` , what is its reported growth inhibition?
[reply] 1.99

[ask] Could you share which growth inhibition value was measured for `COc1ccc(-n2nc(C(N)=O)c3c2C(=O)N(c2ccc(N4CCCCC4=O)cc2)CC3)cc1` ?
[reply] -1.17

[ask] Value lookup for growth inhibition; key = `CCCC(=O)O[C@]1(C(=O)COC(C)=O)CC[C@H]2[C@@H]3C[C@H](F)C4=CC(=O)C=C[C@]4(C)[C@@]3(F)[C@@H](O)C[C@@]21C`
[reply] 1.5

[ask] What does the record list as growth inhibition for `COc1ccc2cc(CCC(C)=O)ccc2c1` ?
[reply] -3.29

[ask] Entry COc1cc2c(cc1OC)C(=O)C(CC1CCN(Cc3ccccc3)CC1)C2 (stereo not given) has what growth inhibition?
[reply] 4.4

[ask] Find the recorded growth inhibition belonging to `CCCS(=O)(=O)Nc1ccc(F)c(C(=O)c2c[nH]c3ncc(-c4ccc(Cl)cc4)cc23)c1F` and report it.
[reply] 0.0739
